# Assayed target: human leukocyte elastase (Homo sapiens, UniProt P08246)
# Sequence (P08246 30-267): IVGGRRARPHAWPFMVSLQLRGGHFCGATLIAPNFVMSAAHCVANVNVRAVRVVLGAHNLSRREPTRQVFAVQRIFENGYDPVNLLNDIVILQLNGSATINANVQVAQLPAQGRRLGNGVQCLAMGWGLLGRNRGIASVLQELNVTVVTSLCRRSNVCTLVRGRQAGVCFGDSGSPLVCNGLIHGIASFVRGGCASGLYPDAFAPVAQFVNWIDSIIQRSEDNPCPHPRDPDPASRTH
# Assay comment: in vitro human leukocyte elastase inhibiting activity (fluorogenic substrate, method of JP-A-2-101017 with slight modification)
# Assay type: biochemical
# Experimental: Thus, methoxysuccinyl-Ala-Ala-Pro-Val-7-amido-4-methylcoumarin was used as a substrate for human leukocyte elastase and the 50% inhibitory concentration (IC₅₀) was measured. The enzymatic reaction was carried out in 0.2 M Tris-hydrochloride buffer (containing 0.02 M CaCl₂ and 0.005% Triton X-100) at pH 7.2. Each mixture of test compound solution and the enzyme solution was incubated at 25°C for 20 minutes.
Test readout: IC50

{"Molecule": "CC(C)C(=O)Nc1ccc(C(=O)Oc2cc([N+](=O)[O-])ccc2[N+](=O)[O-])cc1 [Compound 50]", "Assayed target": "human leukocyte elastase (Homo sapiens, UniProt P08246)", "Test readout": "IC50", "Value measured": "4.7 nM"}
{"Molecule": "CN(C)C(=O)Oc1cc(Cl)cc(OC(=O)c2ccc(NC(=O)C(C)(C)C)cc2)c1 [Compound 58]", "Assayed target": "human leukocyte elastase (Homo sapiens, UniProt P08246)", "Test readout": "IC50", "Value measured": "3.5 nM"}
{"Molecule": "CC(C)C(=O)Nc1ccc(C(=O)Oc2cc(Cl)cc(OC(=O)N(C)C)c2)cc1 [Compound 81]", "Assayed target": "human leukocyte elastase (Homo sapiens, UniProt P08246)", "Test readout": "IC50", "Value measured": "6.5 nM"}
